# target of assay: C5aR (Homo sapiens, UniProt P21730)
# Construct: U937 cells are a monocytic cell line which express C5aR
# Sequence (P21730 1-350): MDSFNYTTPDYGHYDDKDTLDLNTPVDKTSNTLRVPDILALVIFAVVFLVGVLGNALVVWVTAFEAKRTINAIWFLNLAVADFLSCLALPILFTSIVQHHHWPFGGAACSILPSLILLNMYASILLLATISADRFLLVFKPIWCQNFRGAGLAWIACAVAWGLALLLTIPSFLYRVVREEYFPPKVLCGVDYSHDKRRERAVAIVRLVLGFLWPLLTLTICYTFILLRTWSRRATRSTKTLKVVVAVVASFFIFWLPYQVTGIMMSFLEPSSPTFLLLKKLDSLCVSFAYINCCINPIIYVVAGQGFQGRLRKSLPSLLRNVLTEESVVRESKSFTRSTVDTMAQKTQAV
# assay comment: chemotaxis assay (C5aR mediated migration)
# run conditions: migration of U937 or neutrophil cells toward C5a (0.03 nM), 1.5 hours at 37° C., read-out: Mig IC50
measure: IC50

* Cc1cccc(C)c1-n1nc2c(c1-c1ccc(C)c3[nH]ccc13)CN(c1ccc(C(F)(F)F)cn1)CC2 [Example 1.130] | 5 to 50 nM
* CCc1cccc(CC)c1-n1nc2c(c1-c1cc(F)c(OC)c3[nH]ccc13)CN(c1ncc(C(F)(F)F)cc1F)CC2 [Example 1.061] | < 5 nM

IN: Quick one: IC50 of CCc1cccc(CC)c1-n1nc2c(c1-c1nccc3[nH]cc(Cl)c13)CN(c1ncc(C(F)(F)F)cn1)CC2 [Example 1.005] ?
OUT: < 5 nM

IN: Quick one: IC50 of CCc1cccc(CC)c1-n1nc2c(c1-c1ccc(C)c3[nH]ccc13)CN(c1ccc(C(F)(F)F)cn1)CC2 [Example 1.142] ?
OUT: < 5 nM

IN: Quick one: IC50 of CCc1cccc(CC)c1-n1nc2c(c1-c1cccc3[nH]c(C(F)(F)F)nc13)CN(c1ncc(C(F)(F)F)cn1)CC2 [Example 1.042] ?
OUT: 50 to 500 nM

IN: Quick one: IC50 of CCc1cccc(CC)c1-n1nc2c(c1-c1cc(F)c(CO)c3[nH]ccc13)CN(c1ncc(C(C)(C)O)cn1)CC2 [Example 1.068] ?
OUT: 5 to 50 nM

IN: Quick one: IC50 of Cc1cccc(OCC(C)C)c1-n1nc2c(c1-c1ccc3[nH]ccc3c1)CN(C(=O)NC(C)(C)C)CC2 [Example 1.186] ?
OUT: 50 to 500 nM

IN: Quick one: IC50 of CCc1cccc(CC)c1-n1nc2c(c1-c1cc(F)c(CO)c3[nH]ccc13)CN(c1ncc(C(F)(F)F)cn1)CC2 [Example 1.077] ?
OUT: < 5 nM

IN: Quick one: IC50 of CCc1cccc(CC)c1-n1nc2c(c1-c1ccc(Cl)c3[nH]ccc13)CN(c1ccc(C(F)(F)F)cn1)CC2 [Example 1.163] ?
OUT: < 5 nM

* * *

# target of assay: C5aR (Homo sapiens)
# Construct: U937 cells are a monocytic cell line which express C5aR
# assay comment: chemotaxis assay (C5aR mediated migration)
# run conditions: migration of U937 or neutrophil cells toward C5a (0.03 nM), 1.5 hours at 37° C., read-out: Mig IC50
measure: IC50

// solved cases for IC50 follow
• CCc1cccc(CC)c1-n1nc2c(c1-c1ccc3[nH]ccc3c1)CN(C(CC)CC)CC2 [Example 1.212] = < 5 nM
• CCc1cccc(CC)c1-n1nc2c(c1-c1c(F)cc(Cl)c3[nH]ccc13)CN(c1ncc(C(F)(F)F)cn1)CC2 [Example 1.137] = < 5 nM
• CCc1cccc(CC)c1-n1nc2c(c1-c1ccc(Cl)c3[nH]ccc13)CN(c1ncc(CO)cn1)CC2 [Example 1.097] = 5 to 50 nM

Next:
IN: Quick one: IC50 of Cc1cccc(OCC(C)C)c1-n1nc2c(c1-c1ccnc3[nH]ccc13)CN(c1ncc(C(F)(F)F)cc1F)CC2 [Example 1.217] ?
OUT: 50 to 500 nM

* * *

# target of assay: C5aR (Homo sapiens, UniProt P21730)
# Construct: U937 cells are a monocytic cell line which express C5aR
# assay comment: chemotaxis assay (C5aR mediated migration)
# run conditions: migration of U937 or neutrophil cells toward C5a (0.03 nM), 1.5 hours at 37° C., read-out: Mig IC50
measure: IC50

* CCc1cccc(CC)c1-n1nc2c(c1-c1ccc(C(N)=O)c3[nH]ccc13)CN(c1ncc(C(F)(F)F)cc1F)CC2 | 50 to 500 nM
* CCc1cccc(CC)c1-n1nc2c(c1-c1c(F)cc(CO)c3[nH]ccc13)CN(c1ncc(C(F)(F)F)cn1)CC2 | < 5 nM
* Cc1cccc(C)c1-n1nc2c(c1-c1c(F)cc(Cl)c3[nH]ccc13)CN(c1ncc(C(F)(F)F)cn1)CC2 | 5 to 50 nM
* CCc1cccc(CC)c1-n1nc2c(c1-c1c(F)cc(C)c3[nH]ccc13)CN(c1ncc(C(F)(F)F)cc1F)CC2 | < 5 nM
* FC(F)(F)c1ccccc1CN1CCc2nn(-c3c(Cl)cccc3Cl)c(-c3ccc4[nH]ccc4c3)c2C1 | 5 to 50 nM

IN: Quick one: IC50 of CCc1cccc(CC)c1-n1nc2c(c1-c1c(F)cc(C)c3[nH]ccc13)CN(c1ccc(C(C)C)cn1)CC2 ?
OUT: < 5 nM

IN: Quick one: IC50 of CCc1cccc(CC)c1-n1nc2c(c1-c1ccc(C)c3[nH]ccc13)CN(c1ncc(C(C)C)cn1)CC2 ?
OUT: < 5 nM

* * *

# target of assay: C5aR (Homo sapiens)
# Construct: U937 cells are a monocytic cell line which express C5aR
# assay comment: chemotaxis assay (C5aR mediated migration)
# run conditions: migration of U937 or neutrophil cells toward C5a (0.03 nM), 1.5 hours at 37° C., read-out: Mig IC50
pIC50: −log10 of the molar value.
measure: pIC50

IN: Quick one: pIC50 of CCc1cccc(CC)c1-n1nc2c(c1-c1ccc(Cl)c3[nH]ccc13)C(=O)N(c1ncc(C(F)(F)F)cn1)CC2 ?
OUT: < 6.30

IN: Quick one: pIC50 of CCc1cccc(CC)c1-n1nc2c(c1-c1ccc3[nH]ccc3c1)CN(Cc1cc(Cl)ccc1Cl)CC2 ?
OUT: > 8.30

IN: Quick one: pIC50 of Cc1cccc(OCC(C)C)c1-n1nc2c(c1-c1ccc3[nH]ccc3c1)CN(Cc1cc(Cl)ccc1C(F)(F)F)CC2 ?
OUT: 7.30 to 8.30

IN: Quick one: pIC50 of CCc1cccc(CC)c1-n1nc2c(c1-c1ccc3[nH]cc(Cl)c3c1)CN(Cc1cc(F)ccc1Cl)CC2 ?
OUT: 7.30 to 8.30

IN: Quick one: pIC50 of Cc1cccc(C)c1-n1nc2c(c1-c1ccc(F)c3[nH]ccc13)CN(c1ncc(C(F)(F)F)cc1F)CC2 ?
OUT: 6.30 to 7.30

IN: Quick one: pIC50 of CCc1cccc(CC)c1-n1nc2c(c1-c1ccc(OC)c3[nH]ccc13)CN(c1ncc(C(F)(F)F)cn1)CC2 ?
OUT: 7.30 to 8.30

IN: Quick one: pIC50 of CCc1cccc(CC)c1-n1nc2c(c1-c1ccc(Cl)c3[nH]ccc13)CN(c1ncc(C3CC3)cc1F)CC2 ?
OUT: > 8.30

IN: Quick one: pIC50 of CCc1cccc(CC)c1-n1nc2c(c1-c1c(F)cc(Cl)c3[nH]ccc13)CN(c1ncc(OC(C)C)cn1)CC2 ?
OUT: > 8.30

IN: Quick one: pIC50 of Cc1cccc(C)c1-n1nc2c(c1-c1ncc(Cl)c3[nH]ccc13)CN(c1ncc(C3CC3)cn1)CC2 ?
OUT: 7.30 to 8.30

IN: Quick one: pIC50 of Cc1cccc(C)c1-n1nc2c(c1-c1c(F)cc(Cl)c3[nH]ccc13)CN(c1ccc(C(C)C)cn1)CC2 ?
OUT: > 8.30

IN: Quick one: pIC50 of CCc1cccc(CC)c1-n1nc2c(c1-c1cncc3[nH]ccc13)CN(c1ncc(C(F)(F)F)cn1)CC2 ?
OUT: 6.30 to 7.30

IN: Quick one: pIC50 of CCc1cccc(CC)c1-n1nc2c(c1-c1cnc(C)c3[nH]ccc13)CN(c1ncc(C(F)(F)F)cn1)CC2 ?
OUT: 7.30 to 8.30

IN: Quick one: pIC50 of Cc1cccc(C)c1-n1nc2c(c1-c1c(F)cc(CO)c3[nH]ccc13)CN(c1ncc(C(F)(F)F)cn1)CC2 ?
OUT: 7.30 to 8.30

IN: Quick one: pIC50 of CCc1cccc(CC)c1-n1nc2c(c1-c1ccc3[nH]ccc3c1)CN(Cc1ccccc1C(F)(F)F)CC2 ?
OUT: > 8.30

* * *

# target of assay: C5aR (Homo sapiens)
# Construct: U937 cells are a monocytic cell line which express C5aR
# assay comment: chemotaxis assay (C5aR mediated migration)
# run conditions: migration of U937 or neutrophil cells toward C5a (0.03 nM), 1.5 hours at 37° C., read-out: Mig IC50
pIC50: −log10 of the molar value.
Each entry below carries its reported pIC50.

- CCc1cccc(CC)c1-n1nc2c(c1-c1ccc(Cl)c3[nH]ccc13)CN(c1cnc(C3CC3)cn1)CC2: 7.30 to 8.30
- Cc1cccc(C)c1-n1nc2c(c1-c1cc(F)c(C)c3[nH]ccc13)CN(c1ncc(C(F)(F)F)cn1)CC2: 7.30 to 8.30
- Cc1cccc(OCC(C)C)c1-n1nc2c(c1-c1ccc3[nH]ccc3c1)CN(CC(C)(C)C)CC2: > 8.30
- CCc1cccc(CC)c1-n1nc2c(c1-c1c(F)cc(CO)c3[nH]ccc13)CN(c1ncc(C(C)C)cn1)CC2: > 8.30
- CCc1cccc(CC)c1-n1nc2c(c1-c1ccc(Cl)c3[nH]ccc13)CN(c1ncc(C)c(CO)n1)CC2: 7.30 to 8.30

IN: Quick one: pIC50 of CCc1cccc(CC)c1-n1nc2c(c1-c1c(F)cc(Cl)c3[nH]ccc13)CN(c1ncc(C(=O)N3CCCC3)cn1)CC2 ?
OUT: > 8.30

IN: Quick one: pIC50 of Cc1cccc(C)c1-n1nc2c(c1-c1ccc3[nH]cc(C#N)c3c1)CN(c1ncc(Cl)cc1Cl)CC2 ?
OUT: < 6.30

Origin of measurements: patent US11384079B2
